System: SR leukemia
Experiment: NCI-60 one-dose screen, 48 h (100 = growth as untreated, 0 = no growth, -100 = all killed)
Conditions: 10 µM unless noted
About 83,000 compounds went through this panel and 20% of them were active in at least one assay; those are over-represented in the sample as a whole. The source made the active and inactive calls. How the source made its calls: active means growth percent below 10; inactive means the rest.

{"molecule": "O=C(CCCCCCC(=O)Nc1ccc(N(CCCl)CCCl)cc1)NO", "tgt": "SR leukemia", "growth": "12.2% (inactive)"}
{"molecule": "CCN(CCO)C(Cc1ccccc1)c1ccccc1 (centres undefined)", "tgt": "SR leukemia", "growth": "116% (inactive)"}
{"molecule": "C=COC(=O)CCN1CC1", "tgt": "SR leukemia", "growth": "100% (inactive)"}
{"molecule": "O=P1(NCCCl)OCCCN1CCCl (centres undefined)", "tgt": "SR leukemia", "growth": "91.2% (inactive)"}
{"molecule": "CN(C)C(=O)Oc1ccc(Br)cc1", "tgt": "SR leukemia", "growth": "100% (inactive)"}
{"molecule": "O=C1C2C(C(=O)[N]1[Hg][c]1ccccc1)C1(Cl)C(Cl)=C(Cl)C2(Cl)C1(Cl)Cl (centres undefined)", "tgt": "SR leukemia", "growth": "-23.6% (active)"}
{"molecule": "O=C1CCC2(O)[C@@H]3Cc4ccc(O)c5c4[C@]2(CCN3Cc2ccoc2)C1O5 (some centres undefined)", "tgt": "SR leukemia", "growth": "95.4% (inactive)"}
{"molecule": "CCOC(=O)[C@@H](C)C[C@H](Cc1ccccc1)NC(=O)c1csc([C@@H](C[C@H](C(C)C)N(C)C(=O)[C@@H](NC(=O)[C@H]2CCCCN2C)C(C)(C)C)OC(C)=O)n1", "tgt": "SR leukemia", "growth": "3.63% (active)"}
{"molecule": "CO[C@H](C(=O)O)[C@@H]1Cc2cc3cc(OC4CC(OC5CC(O)C(O)C(C)O5)C(O)C(C)O4)c(C)c(O)c3c(O)c2C(=O)[C@H]1OC1CC(OC2CC(OC3CC(C)(O)C(O)C(C)O3)C(O)C(C)O2)C(O)C(C)O1 (some centres undefined)", "tgt": "SR leukemia", "growth": "10.4% (inactive)"}

====

Test system: HCT-116 colon
Test: NCI-60 one-dose screen, 48 h
Conditions: 10 µM unless noted
Compounds without any hit were thinned out: in the full panel of roughly 83,000, 20% have a hit. Active and inactive are the calls of the source. How the source made its calls: active means growth percent below 10; inactive means the rest.
Classes used: active, inactive

{"compound": "O=C1CN=C(c2ccc(Cl)cc2)c2sccc2N1", "group_label": "inactive"}
{"compound": "O=[N+]([O-])c1ccc([Se]C2CCCCC2Cl)c([N+](=O)[O-])c1 (centres undefined)", "group_label": "inactive"}
{"compound": "CCCOC(=O)N[C@H]1CCc2c(Br)c(OC)c(OC)c(OC)c2-c2ccc(SC)c(=O)cc21", "group_label": "active"}
{"compound": "COC(=O)N[C@H]1CCc2c(Br)c(OC)c(OC)c(OC)c2-c2ccc(SC)c(=O)cc21", "group_label": "active"}
{"compound": "CC1(C)N=C(N)N=C(N)N1c1ccc(CCCCc2ccc(Cl)c(S(=O)(=O)F)c2)c(Cl)c1", "group_label": "inactive"}
{"compound": "ClCCN(CCCl)c1ccc(OCc2ccccc2)cc1", "group_label": "inactive"}
{"compound": "CCOP(=O)(NC[C@H]1O[C@](O)(CO)[C@@H](O)[C@@H]1O)OCC", "group_label": "inactive"}
{"compound": "CCN1C(=O)C(=C/C=C/c2ccccc2)C(=O)N(CC)C1=O", "group_label": "inactive"}
{"compound": "O=C1NC(=O)C(=Cc2cn(C(=O)c3ccccc3)c3ccccc23)C(=O)N1", "group_label": "inactive"}
{"compound": "COc1ccc(C/C(C)=C(\\c2ccc(OCCN3CCOCC3)cc2)c2ccc(OC(=O)Cc3ccccc3)cc2)cc1", "group_label": "active"}
{"compound": "CCCCCSC1C2C(=O)C(Br)=CC13CCNc1c(O)c4c5c(c13)=[N+]2CCC=5C=N4 (centres undefined)", "group_label": "active"}
{"compound": "C[Se]C(=O)c1ccccc1OC(C)=O", "group_label": "inactive"}
{"compound": "O=[N+]([O-])c1cc(I)cc([N+](=O)[O-])c1", "group_label": "inactive"}
{"compound": "C[C@@H]1CCC2[C@@H](C)[C@H](OC(=O)CCC(=O)NCCNC(=O)Cc3cc(=O)oc4cc(N(C)C)ccc34)O[C@@H]3O[C@]4(C)CC[C@@H]1C23OO4 (some centres undefined)", "group_label": "inactive"}
{"compound": "ClCCN(CCCl)c1nc(Cl)c(C2CC(c3ccccc3)=NN2c2cc(Cl)cc(Cl)c2)s1 (centres undefined)", "group_label": "inactive"}
{"compound": "CC1(C)C(C(=O)c2cn(CCCCF)c3ccccc23)C1(C)C", "group_label": "inactive"}
{"compound": "COC[C@@H]1C[C@@]2(C)[C@@H](CC[C@@H]3[C@@H]2CC[C@@]2(C)[C@H]3CC[C@]2(C)O)CC1=O", "group_label": "inactive"}
{"compound": "COc1ccc(/C=C\\c2cc(OC)c(OC)c(OC)c2)c(NS(=O)(=O)c2ccc(F)cc2)c1O", "group_label": "active"}
{"compound": "Cc1cc(NC(=O)NCc2ccc(N3C(N)=NC(N)=NC3(C)C)cc2)ccc1S(=O)(=O)F", "group_label": "inactive"}

====

Tested on: HCT-116 colon
Assay: NCI-60 one-dose screen, 48 h (100 = growth as untreated, 0 = no growth, -100 = all killed)
Settings: 10 µM unless noted
Compounds without any hit were thinned out: in the full panel of roughly 83,000, 20% have a hit.
growth of 50% or higher: 1. Under 50%: 0.

{"compound": "CC(=O)C(c1c(O)c2ccccc2oc1=O)c1cc(=O)oc2c1ccc1ccccc12 (centres undefined)", "group_label": 1}
{"compound": "NC(=O)c1c(Br)n(C2OC(CO)C(O)C2O)c2ncnc(N)c12 (centres undefined)", "group_label": 0}
{"compound": "COC(=O)[C@@H](C)C[C@H](Cc1ccccc1)NC(=O)c1csc([C@@H](C[C@H](C(C)C)N(C)C(=O)[C@@H](NC(=O)[C@H]2CCCCN2C)C2CC2)OC(C)=O)n1", "group_label": 0}
{"compound": "CC(=O)/C=C/c1ccc2c(c1)OCO2", "group_label": 1}
{"compound": "O=C1C2C(C(=O)[N]1[Hg][c]1ccccc1)C1(Cl)C(Cl)=C(Cl)C2(Cl)C1(Cl)Cl (centres undefined)", "group_label": 0}
{"compound": "CN1C(=O)C(=Cc2cn(CCCCCCn3c4ccccc4c(=O)c4ccccc43)c3ccccc23)C(=O)N(C)C1=O", "group_label": 1}
{"compound": "C[C@@H]1C[C@@]2(C)[C@@H](CC[C@@H]3[C@@H]2CC[C@]2(C)C(=O)CC[C@@H]32)CC1=O", "group_label": 1}
{"compound": "O=C(CC1(O)C(=O)Nc2ccc(Cl)cc21)c1ccc(C(=O)NCC2CCC3(CC2)OOC2(CCCCC2)OO3)cc1 (centres undefined)", "group_label": 0}
{"compound": "Brc1ccc2c(c1)c(-c1nc(-c3c[nH]c4ncccc34)cs1)cn2CCN1CCOCC1", "group_label": 1}
{"compound": "Nc1c(F)cc(-c2nc3cc(F)ccc3[se]2)cc1F", "group_label": 0}
{"compound": "CNC(=O)Oc1ccc(N(C)C)cc1C(C)C", "group_label": 1}
{"compound": "C#Cc1ccc2c(c1)C(c1ccccc1F)=NCC(=O)N2C", "group_label": 0}
{"compound": "Oc1c(O)c(Cl)c(Cl)c(Cl)c1Cl", "group_label": 0}

====

Tested on: UACC-62 melanoma
Test: NCI-60 one-dose screen, 48 h (100 = growth as untreated, 0 = no growth, -100 = all killed)
Details: 10 µM unless noted
Method: Growth inhibition of the UACC-62 human tumor cell line is measured as a screen for anti-cancer activity. Cells are grown in 96 well plates and exposed to the test compound for 48 hours. Compounds are tested at a single concentration, which is 10^-5 M for most compounds. The reported endpoint is percent growth (GI% or GIPRCNT), where numbers from 0 - 100% represent growth inhibition, and numbers from -100% - 0 represent cell death. For example, a value of 40 represents 60% growth inhibition. […]
This is part of a sample that, as a whole, favours compounds with a hit. Of some 83,000 tested, about 20% had one in any assay. Active and inactive are the calls of the source. Rule for the calls: active = growth percent below 10; inactive = the rest.
Items are presented alongside their recorded growth.

{"compound": "COC(=O)CCC1=C(C)c2cc3[n-]c(cc4nc(cc5[n-]c(cc1n2)c(CCC(=O)OC)c5C)C=C4C)cc3C.[Cd+2]", "growth": "24.1% (inactive)"}
{"compound": "O=C1NC(=O)C(=Cc2ccc(OCCCCC3CCCCC3)c(Cl)c2)C(=O)N1", "growth": "98.3% (inactive)"}
{"compound": "C[C@]12CCc3sc(-c4cccc(F)c4)nc3C1=CC[C@@H]1[C@@H]2CC[C@]2(C)C(=O)CC[C@@H]12", "growth": "34.9% (inactive)"}
{"compound": "O=C(Nc1ccc(Br)cc1)c1cc(Br)cc(Br)c1O", "growth": "-14.2% (active)"}
{"compound": "CC1=C(CN)C2=C(C)C3(CC3)[C@@](C)(O)C(=O)C2=C1", "growth": "97% (inactive)"}
{"compound": "Nc1ncnc2n[nH]nc12", "growth": "46.7% (inactive)"}
{"compound": "C1CCC2(CC1)OOCNCOO2", "growth": "113% (inactive)"}
{"compound": "Fc1ccc(N2COOC3(OOC2)C2CC4CC(C2)CC3C4)cc1", "growth": "76.5% (inactive)"}
{"compound": "C/C(CC(C)(C)N1CC1)=N\\NC(=O)Nc1cccc2ccccc12", "growth": "68.4% (inactive)"}
{"compound": "O=C(Nc1ccc(Cl)cc1)Nc1nccs1", "growth": "50.3% (inactive)"}
{"compound": "COc1ccc(/C=C\\c2cc(OC)c(OC)c(OC)c2)cc1NS(=O)(=O)c1ccc(Cl)cc1", "growth": "45.1% (inactive)"}
{"compound": "COc1cc2ncnc(Nc3ccc(F)c(Cl)c3)c2cc1OCC(=O)N1CCN(C)CC1", "growth": "98.1% (inactive)"}
{"compound": "CCOC(=O)[C@@H](C)C[C@H](Cc1ccccc1)NC(=O)c1csc([C@@H](C[C@H](C(C)C)N(C)C(=O)[C@@H](NC(=O)[C@H]2C[C@H](O)CCN2C)C(C)C)OC(C)=O)n1", "growth": "38.4% (inactive)"}
{"compound": "O=P(N1CC1)(N1CC1)N1CCc2ccccc21", "growth": "92.8% (inactive)"}
{"compound": "COc1ccc(N(CC(=O)NCCC[Te]c2ccccc2)C(=O)CNC(=O)OC(C)(C)C)cc1", "growth": "89.2% (inactive)"}
{"compound": "C[C@]12CCc3sc(NCCc4ccccc4)nc3C1=CC[C@@H]1[C@@H]2CC[C@]2(C)C(=O)CC[C@@H]12", "growth": "75.6% (inactive)"}
{"compound": "COc1cc(C=C2c3ccccc3C(=O)c3ccccc32)ccc1OCCCCOc1cc2c(cc1OC)C(=O)N1CCCC1C=N2 (stereo not given)", "growth": "-90.1% (active)"}
{"compound": "CC(=O)O[C@@H]1CC[C@]2(C)[C@H]3CC[C@]4(C)C(=O)CC[C@H]4[C@@H]3C[C@@H]3SC(N)=N[C@@]32C1", "growth": "38.2% (inactive)"}
{"compound": "Nc1nnnc2nc[nH]c12", "growth": "-50.9% (active)"}
{"compound": "C1CCC([PH+](C2CCCCC2)C2CCCCC2[PH+](C2CCCCC2)C2CCCCC2)CC1.O=C(C1[CH-]CCCC1)C1CCCC[N-]1.[Au] (stereo not given)", "growth": "-85.8% (active)"}
